SYSTEM_UNDER_TEST: human Farnesoid X receptor ligand-binding domain/Gal4 DNA binding domain chimera (Homo sapiens (Human))
Sequence (Q96RI1 262-486, change not shown): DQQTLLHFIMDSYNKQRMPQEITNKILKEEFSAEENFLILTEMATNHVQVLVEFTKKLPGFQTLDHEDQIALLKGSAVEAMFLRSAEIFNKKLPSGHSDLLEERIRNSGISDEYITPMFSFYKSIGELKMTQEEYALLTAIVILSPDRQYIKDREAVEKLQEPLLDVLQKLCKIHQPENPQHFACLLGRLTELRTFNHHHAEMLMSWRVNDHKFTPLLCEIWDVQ
Sequence (P04386 1-147 partner): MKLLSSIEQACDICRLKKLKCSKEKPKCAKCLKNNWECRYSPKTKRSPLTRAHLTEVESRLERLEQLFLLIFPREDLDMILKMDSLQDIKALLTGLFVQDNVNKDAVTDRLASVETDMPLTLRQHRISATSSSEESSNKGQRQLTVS
TEST_NAME: Cell-based assay of FXR activation (FXR-UAS-bla HEK 293T beta-lactamase reporter)
CONDITIONS_USED: HEK-293T; extent of activation relative to GW4064; cellular FXR beta-lactamase reporter assay; read-out: % Efficacy
Exercise: state measured Emax for each of the compounds provided.
Numbers only here, please. The scale is %.

Which value of Emax has been reported for O=C(NS(=O)(=O)C1CCOC1)c1ccc(N2C(=O)[C@@H]3C[C@H]2C[C@H]3OCc2c(-c3c(Cl)cccc3Cl)noc2C2CC2)cc1F (stereo partly drawn) in the records? 104

Which value of Emax has been reported for O=C(O)c1cc(C2CC3(CCOCC3)C2)c2nc(N3C(=O)[C@@H]4C[C@H]3C[C@H]4OCc3c(-c4c(Cl)cccc4Cl)noc3C3CC3)sc2c1 in the records? 117

Which value of Emax has been reported for O=C(O)c1ccc(C2CC2)cc1N1C(=O)[C@@H]2C[C@H]1C[C@H]2OCc1c(-c2c(Cl)cccc2Cl)noc1C1CC1 in the records? 110

###

Exercise: state measured pEC50 for each of the molecules provided.
SYSTEM_UNDER_TEST: human Farnesoid X receptor ligand-binding domain/Gal4 DNA binding domain chimera (Homo sapiens (Human))
TEST_NAME: Cell-based assay of FXR activation (FXR-UAS-bla HEK 293T beta-lactamase reporter)
CONDITIONS_USED: cellular FXR beta-lactamase reporter assay, FXR-UAS-bla HEK 293T cells, 16 h; pEC50 = -log EC50
Description: FXR activation was measured using a cell line and procedure obtained from Life Technologies (Cat # K1691). FXR-UAS-bla HEK 293T cells contain a human Farnesoid X receptor ligand-binding domain/Gal4 DNA binding domain chimera stably integrated into the CellSensor® UAS-bla HEK 293T cell line. […] Activation of FXR by bound ligands results in transcriptional activation of the beta-lactamase reporter gene, which is detected via assay of beta-lactamase activity. […]
Scale for pEC50: -log10 of concentration given in mol/L; no unit attached.

Which value of pEC50 has been reported for O=C(O)c1cc(F)c2nc(N3C[C@@H]4C[C@H]3C[C@H]4OCc3c(C4CCCCC4)noc3C3CC3)sc2c1 in the records? 7.10

Which value of pEC50 has been reported for O=C(NS(=O)(=O)CC1CCOC1)c1ccc(N2C(=O)[C@@H]3C[C@H]2C[C@H]3OCc2c(-c3c(Cl)cccc3Cl)noc2C2CC2)cc1F (stereo partly drawn) in the records? 9.00

Which value of pEC50 has been reported for CC(CC(=O)O)c1ccc(N2C[C@@H]3C[C@H]2C[C@H]3OCc2c(-c3c(Cl)cccc3Cl)noc2C2CC2)c(F)c1 (stereo partly drawn) in the records? 8.30

Which value of pEC50 has been reported for O=C(O)c1cc(C2CCOCC2)c2nc(N3C[C@@H]4C[C@H]3C[C@H]4OCc3c(-c4c(F)cccc4Cl)noc3C3CC3)sc2c1 in the records? 9.20

Which value of pEC50 has been reported for CCCCCS(=O)(=O)NC(=O)c1ccc(N2C[C@@H]3C[C@H]2C[C@H]3OCc2c(-c3c(Cl)cccc3Cl)noc2C2CC2)c(F)c1 in the records? 10.40

Which value of pEC50 has been reported for O=C(O)c1cc(C(F)(F)F)c2nc(N3C[C@@H]4C[C@H]3C[C@H]4OCc3c(-c4c(Cl)cccc4Cl)noc3C3CC3)sc2c1 in the records? 9.60

###

Exercise: state measured pEC50 for each of the compounds provided.
SYSTEM_UNDER_TEST: ligand binding domain of human FXR (Homo sapiens (Human))
Sequence (Q96RI1 262-486): as the sequence (Q96RI1 262-486, change not shown) above
TEST_NAME: FXR ligand binding assay (LanthaScreen TR-FRET, SRC2-2 peptide recruitment)
CONDITIONS_USED: -log EC50, concentration required to produce 50% activation
# answer = number (no unit)

Which value of pEC50 has been reported for Cc1cc(C(=O)O)cc2sc(N3C[C@@H]4C[C@H]3C[C@H]4OC(=O)c3c(-c4c(Cl)cccc4Cl)noc3C3CC3)nc12 in the records? 7.6

Which value of pEC50 has been reported for O=C(NS(=O)(=O)C1CC1)c1ccc(N2C[C@@H]3C[C@H]2C[C@H]3OC(=O)c2c(-c3c(Cl)cccc3Cl)noc2C2(F)CC2)c(F)c1 in the records? 7.4

###

SYSTEM_UNDER_TEST: human Farnesoid X receptor ligand-binding domain/Gal4 DNA binding domain chimera (Homo sapiens (Human))
TEST_NAME: Cell-based assay of FXR activation (FXR-UAS-bla HEK 293T beta-lactamase reporter)
CONDITIONS_USED: cellular FXR beta-lactamase reporter assay, FXR-UAS-bla HEK 293T cells, 16 h; pEC50 = -log EC50
Exercise: state measured pEC50 for each of the molecules provided.
Scale for pEC50: -log10 of concentration given in mol/L; no unit attached.

Which value of pEC50 has been reported for O=C(NS(=O)(=O)CCC1CCOC1)c1ccc(N2C(=O)[C@@H]3C[C@H]2C[C@H]3OCc2c(-c3c(Cl)cccc3Cl)noc2C2CC2)cc1F (stereo partly drawn) [Compound I-336] in the records? 8.60

Which value of pEC50 has been reported for O=C(NS(=O)(=O)CCOC(=O)C1CC1)c1ccc(N2C[C@@H]3C[C@H]2C[C@H]3OCc2c(-c3c(Cl)cccc3Cl)noc2C2CC2)cc1 [Compound I-212] in the records? 8.60

Which value of pEC50 has been reported for O=C1NCc2cc(N3C[C@@H]4C[C@H]3C[C@H]4OCc3c(-c4c(Cl)cccc4Cl)noc3C3CC3)ccc21 [Compound I-135] in the records? 9.00

Which value of pEC50 has been reported for O=C(O)c1cc(F)c2nc(N3C[C@H]4C[C@@H]3C[C@H]4OCc3c(-c4c(Cl)cccc4Cl)noc3C3CC3)sc2c1 [Compound I-41] in the records? 5.60

Which value of pEC50 has been reported for O=C(O)C1CCc2cc(N3C(=O)[C@@H]4C[C@H]3C[C@H]4OCc3c(-c4c(Cl)cccc4Cl)noc3C3CC3)ccc21 (stereo partly drawn) [Compound I-312] in the records? 7.70

Which value of pEC50 has been reported for O=C(CCc1ccc(N2C[C@@H]3C[C@H]2C[C@H]3OCc2c(-c3c(Cl)cccc3Cl)noc2C2CC2)c(F)c1)OCCN(CCO)CCO [Compound I-163] in the records? 8.90

Which value of pEC50 has been reported for N#Cc1cc(CCC(=O)O)ccc1N1C[C@@H]2C[C@H]1C[C@H]2OCc1c(-c2c(Cl)cccc2Cl)noc1C1CC1 [Compound I-158] in the records? 8.20

Which value of pEC50 has been reported for CS(=O)(=O)NC(=O)CCc1ccc(N2C[C@@H]3C[C@H]2C[C@H]3OCc2c(-c3c(Cl)cccc3Cl)noc2C2CC2)c(F)c1 [Compound I-236] in the records? 8.60

Which value of pEC50 has been reported for O=C(O)C1Cc2ccc(N3C(=O)[C@@H]4C[C@H]3C[C@H]4OCc3c(-c4c(Cl)cccc4Cl)noc3C3CC3)cc2C1 (stereo partly drawn) [Compound I-313] in the records? 7.60

Which value of pEC50 has been reported for O=C(O)c1cc(C2CC2)c2nc(N3C[C@@H]4C[C@H]3C[C@H]4OC(=O)c3c(-c4c(Cl)cccc4Cl)noc3C3CC3)sc2c1 [Compound I-4] in the records? 8.50

Which value of pEC50 has been reported for CN1CCC(S(=O)(=O)NC(=O)c2ccc(N3C[C@@H]4C[C@H]3C[C@H]4OCc3c(-c4c(Cl)cccc4Cl)noc3C3CC3)cc2)CC1 [Compound I-187] in the records? 8.00

Which value of pEC50 has been reported for O=C(O[C@@H]1C[C@@H]2C[C@H]1CN2c1ccc(-c2nn[nH]n2)cc1F)c1c(-c2c(Cl)cccc2Cl)noc1C1CC1 [Compound I-51] in the records? 7.70

###

SYSTEM_UNDER_TEST: human Farnesoid X receptor ligand-binding domain/Gal4 DNA binding domain chimera (Homo sapiens (Human))
TEST_NAME: Cell-based assay of FXR activation (FXR-UAS-bla HEK 293T beta-lactamase reporter)
CONDITIONS_USED: HEK-293T; extent of activation relative to GW4064; cellular FXR beta-lactamase reporter assay; read-out: % Efficacy
Exercise: state measured Emax for each of the compounds provided.

Which value of Emax has been reported for O=C(O)c1ccc(N2C[C@@H]3C[C@H]2C[C@H]3OCc2c(-c3c(Cl)cccc3Cl)noc2C2CC2)cc1 in the records? 111%

Which value of Emax has been reported for CCOCCOCCS(=O)(=O)NC(=O)c1ccc(N2C[C@@H]3C[C@H]2C[C@H]3OCc2c(-c3c(Cl)cccc3Cl)noc2C2CC2)c(F)c1 in the records? 114%

Which value of Emax has been reported for N#Cc1cc(N2C[C@@H]3C[C@H]2C[C@H]3OCc2c(-c3c(Cl)cccc3Cl)noc2C2CC2)ccc1C(=O)O in the records? 113%

Which value of Emax has been reported for O=C(O)c1ccc2nc(N3C[C@@H]4C[C@H]3C[C@@H]4OC(=O)c3c(-c4c(Cl)cccc4Cl)noc3C3CC3)sc2c1 in the records? 19%

Which value of Emax has been reported for O=C(NS(=O)(=O)C1CC1)c1ccc(N2C[C@@H]3C[C@H]2C[C@H]3OCc2c(-c3c(Cl)cccc3Cl)noc2C2CC2)cc1F in the records? 109%

Which value of Emax has been reported for COc1cc(N2C[C@@H]3C[C@H]2C[C@H]3OCc2c(-c3c(Cl)cccc3Cl)noc2C2CC2)ccc1C(=O)O in the records? 100%

Which value of Emax has been reported for O=C(O)c1cc(C2CCCOCC2)c2nc(N3C[C@@H]4C[C@H]3C[C@H]4OCc3c(-c4c(Cl)cccc4Cl)noc3C3CC3)sc2c1 (stereo partly shown) in the records? 106%

Which value of Emax has been reported for O=C(O)c1ccc(N2C[C@@H]3C[C@H]2C[C@H]3OCc2c(-c3c(Cl)cccc3Cl)noc2C2CC2)c(C2CC2)c1 in the records? 101%

Which value of Emax has been reported for Cc1cc(C(=O)NCCP(=O)(O)O)ccc1N1C[C@@H]2C[C@H]1C[C@H]2OCc1c(-c2c(Cl)cccc2Cl)noc1C1CC1 in the records? 114%

Which value of Emax has been reported for O=C(O)c1c(F)cc(N2C[C@@H]3C[C@H]2C[C@H]3OCc2c(-c3c(Cl)cccc3Cl)noc2C2CC2)cc1F in the records? 104%

Which value of Emax has been reported for O=C(NS(=O)(=O)C1CC1)c1ccc(N2C[C@@H]3C[C@H]2C[C@H]3OCc2c(C3CCC4(CC3)CC4)noc2C2CC2)c(F)c1 in the records? 101%

Which value of Emax has been reported for CCc1cc(C(=O)O)cc2sc(N3C(=O)[C@@H]4C[C@H]3C[C@H]4OCc3c(-c4c(Cl)cccc4Cl)noc3C3CC3)nc12 in the records? 104%

Which value of Emax has been reported for O=C(O)c1cc(OC(F)(F)F)c2nc(N3C[C@@H]4C[C@H]3C[C@H]4OCc3c(-c4c(Cl)cccc4Cl)noc3C3CC3)sc2c1 in the records? 109%

Which value of Emax has been reported for N#Cc1c(F)cc(N2C[C@@H]3C[C@H]2C[C@H]3OCc2c(-c3c(Cl)cccc3Cl)noc2C2CC2)cc1F in the records? 106%

Which value of Emax has been reported for O=C(O)CCc1ccc(N2C(=O)[C@@H]3C[C@H]2C[C@H]3OCc2c(-c3c(Cl)cccc3Cl)noc2C2CC2)c(F)c1 in the records? 107%

Which value of Emax has been reported for O=C(O)c1cc(F)c2nc(N3C[C@H]4C[C@@H]3C[C@@H]4OCc3c(-c4c(Cl)cccc4Cl)noc3C3CC3)sc2c1 in the records? 105%

Which value of Emax has been reported for O=C(NS(=O)(=O)CCCCCCCCCCN1CCC1)c1ccc(N2C[C@@H]3C[C@H]2C[C@H]3OCc2c(-c3c(Cl)cccc3Cl)noc2C2CC2)c(F)c1 in the records? 97%

Which value of Emax has been reported for O=C(O)c1ccc(N2C[C@@H]3C[C@H]2C[C@H]3OCc2c(-c3c(Cl)cccc3Cl)noc2C2(F)CC2)cc1 in the records? 125%

Which value of Emax has been reported for O=C(NS(=O)(=O)C1CCOC1)c1ccc(N2C[C@@H]3C[C@H]2C[C@H]3OCc2c(-c3c(Cl)cccc3Cl)noc2C2CC2)cc1 (stereo partly shown) in the records? 105%

Which value of Emax has been reported for Fc1cc(-c2nn[nH]n2)ccc1N1C[C@@H]2C[C@H]1C[C@H]2OCc1c(-c2c(Cl)cccc2Cl)noc1C1CC1 in the records? 104%

Which value of Emax has been reported for CCCS(=O)(=O)NC(=O)c1ccc(N2C[C@@H]3C[C@H]2C[C@H]3OCc2c(-c3c(Cl)cccc3Cl)noc2C2CC2)cc1F in the records? 104%

Which value of Emax has been reported for O=C(O)c1cc([C@@H]2CCOC2)c2nc(N3C[C@@H]4C[C@H]3C[C@H]4OCc3c(C4CCC5(CC4)CC5)noc3C3CC3)sc2c1 in the records? 105%

Which value of Emax has been reported for O=C1NCc2cc(N3C[C@@H]4C[C@H]3C[C@H]4OCc3c(-c4c(Cl)cccc4Cl)noc3C3CC3)ccc21 in the records? 102%

Which value of Emax has been reported for O=C(O)C1CN(Cc2ccc(N3C[C@@H]4C[C@H]3C[C@H]4OCc3c(-c4c(Cl)cccc4Cl)noc3C3CC3)cc2)C1 in the records? 110%

Which value of Emax has been reported for O=C1OCc2cc(N3C[C@@H]4C[C@H]3C[C@H]4OCc3c(-c4c(Cl)cccc4Cl)noc3C3CC3)ccc21 in the records? 106%

Hey, just so you know, these numbers are from patent US10793568B2.
